Listed here: items and their measured pKd.
- STUDY_SYSTEM: human PD-L1 ECD (human, UniProt Q9NZQ7)
- Sequence (Q9NZQ7 19-238): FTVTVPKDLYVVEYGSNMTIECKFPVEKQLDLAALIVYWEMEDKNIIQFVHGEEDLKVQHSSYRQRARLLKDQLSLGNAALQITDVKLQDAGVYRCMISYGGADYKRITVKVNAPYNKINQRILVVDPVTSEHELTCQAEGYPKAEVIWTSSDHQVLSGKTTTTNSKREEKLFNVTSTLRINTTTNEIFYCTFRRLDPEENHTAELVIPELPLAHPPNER
- PROCEDURE_TEXT: BLI
// pKd is dimensionless: -log10 of concentration (M)

Look over these answered cases.
| BINDER | pKd |
| --- | --- |
| 5C12-hv7-NT (antibody, V domains shown) VH: QVQLVESGGGLVKPGGSLRLSCAASGFSASDVVMAWYRQAPGKQREFVSNIAARGSTDYADSVKGRFTISRDNAKNSLYLQMNSLRAEDTAVYYCNALVWTGSSYNNWGQGTQVTVSS | 8.09 |
| 4D2-hv1-NT (antibody, V domains shown) VH: QVQLVESGGGLVKPGGSLRLSCAASGFSASDVVMAWYRQAPGKQREFVANLGASSTTRYADSVKGRFTISRDNAKNSLYLQMNSLRAEDTAVYYCNALVWTGSSYNNWGQGTQVTVSS | 8.34 |
| 4E2-hv1-NT (antibody, V domains shown) VH: EVQLVESGGGLVKPGGSLRLSCAASGFSAGDVVMAWYRQAPGKQREFVANIAASSTTRYADSVKGRFTISRDNAKNSLYLQMNSLRAEDTAVYYCNALVWTGSSYNNWGQGTQVTVSS | 8.33 |
| 4E2-hv2-NT (antibody, V domains shown) VH: EVQLVESGGGLVKPGGSLRLSCAASGFSAGDVVMAWYRQAPGKQREFVSNIAASSTTRYADSVKGRFTISRDNAKNSLYLQMNSLRAEDTAVYYCNALVWTGSSYNNWGQGTQVTVSS | 8.32 |

Turning now to a further record.
Sure, the documented pKd for 1F4-hv7-NT (antibody, V domains shown) VH: QVQLVESGGGLVKPGGSLRLSCAASGFSASDVVMAWYRQAPGKQREFVANIAASSTTRYADSVKGRFTISRDNAKNSLYLQMNSLRAEDTAVYYCNALVWTGSSYNNWGQGTQVTVSS is 8.19
